Data provenance: paper PMC5540273

Below, each entry is listed with its recorded %Inh.
- Test system: KIT-autoinhibited
- experimentalSetup: concentration: 1 μM, replicates: in singlicate; n = 1;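 also: KINOMEscan kinase panel screen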
parameterMeasured: %Inh (%)

{"columns": ["compound", "parameterMeasured", "valueObserved"],
 "data": [
  ["NCC(NC(=O)c1cc(-c2cn[nH]c2)c(-c2ccnc3[nH]ccc23)s1)c1ccccc1.O=C(O)C(F)(F)F.O=C(O)C(F)(F)F (stereo not drawn)", "%Inh", 0],
  ["CN(C(=O)c1ccc(-c2cc(-c3c[nH]nc3-c3ccccn3)ccn2)cc1)C1CCOCC1", "%Inh", 0],
  ["O=C(Nc1cccc(-c2nn3ncccc3c2-c2ccnc(Nc3cccc(C(F)(F)F)c3)n2)c1)c1c(F)cccc1F", "%Inh", 0],
  ["NS(=O)(=O)c1cccc(-c2ccc3ncc(N4CCOCC4)nc3c2)c1", "%Inh", 15],
  ["COc1ccc(Nc2nccc(N3CCC(NC(=O)Nc4cccc(C(C)=O)c4)C3)n2)cc1 (stereo not drawn)", "%Inh", 0],
  ["O=c1cc(N2CCOCC2)nc2n(Cc3cccc(C(F)(F)F)c3)ccn12", "%Inh", 2],
  ["COc1cc2c(cc1OCCN1CCN(C)CC1)ncc1c3ccc(C#N)cc3[nH]c21", "%Inh", 71],
  ["CC(C)(C)n1cnc2c(N)ncnc21", "%Inh", 30],
  ["Cn1ccc2ncnc(Oc3ccc(NC(=O)Nc4ccncc4)c(Cl)c3)c21", "%Inh", 0],
  ["C[C@@H](Oc1cc(-n2cnc3ccc(NC(=O)NC(C)(C)C)cc32)sc1C(N)=O)c1ccccc1Cl", "%Inh", 1],
  ["Fc1ccc(-c2nn3c(OCC(F)(F)F)cccc3c2-c2ccncc2)cc1", "%Inh", 0],
  ["COc1ccc(S(=O)(=O)NC2CCN(c3cc(C)nc(Nc4cccc(C#N)c4)n3)CC2)cc1.O=C(O)C(F)(F)F", "%Inh", 0]
]}

---

- System: NIK
- Construct: gene MAP3K14
- experimentalSetup: concentration: 1 μM, replicates: in singlicate; n = 1
parameterMeasured: %Inh (%)

{"columns": ["compound", "targetUnderTest", "unit", "valueObserved"],
 "data": [
  ["Cc1ccc(NC(=O)c2ccnc(N3CCN(C)CC3)c2)cc1-c1ccc(C(=O)NCC2CC2)cc1 [GW775604]", "NIK", "%", 4],
  ["Cc1cccc(Cn2ccn3c(=O)cc(N4CCOCC4)nc23)c1 [GSK2297542]", "NIK", "%", 0],
  ["CN1c2ccc(NCc3ccc(F)cc3)cc2-c2c(cnn2C)S1(=O)=O", "NIK", "%", 7],
  ["COc1cc2ncn(-c3cc(OCc4sccc4Cl)c(C(N)=O)s3)c2cc1OC [GSK448459]", "NIK", "%", 22],
  ["CC(C)(C)n1cnc2c(N)ncnc21 [SKF-97359]", "NIK", "%", 33],
  ["Cc1cccc(-c2nc(-c3ccc(S(C)(=O)=O)cc3)sc2-c2ccncc2)c1", "NIK", "%", 0],
  ["COc1ccc(COc2cc(-n3cnc4ccccc43)sc2C(N)=O)cc1 [GSK1024304]", "NIK", "%", 10],
  ["CCCCCc1nc2c(N)ncnc2n1CCCCC [SKF-97255]", "NIK", "%", 0],
  ["Cn1cc(-c2ccc3c(c2)CCN3C(=O)Cc2ccccc2Cl)c2c(N)ncnc21 [GSK2608885]", "NIK", "%", 8],
  ["O=c1cc(N2CCOCC2)nc2n(Cc3cccc(Cl)c3Cl)c(C3CC3)nn12 [GSK2358994]", "NIK", "%", 0],
  ["COc1ccc(S(=O)(=O)NC2CCN(c3cc(C)nc(Nc4cccc(C#N)c4)n3)CC2)cc1.O=C(O)C(F)(F)F [GSK1653539]", "NIK", "%", 5],
  ["Cc1nnc(-c2ccc(C)c(-c3ccc(C(=O)Nc4ccc(NS(C)(=O)=O)cc4)cc3)c2)o1 [GW702865]", "NIK", "%", 16],
  ["COc1cc2c(cc1OCCN1CCN(C)CC1)ncc1c3ccc(C#N)cc3[nH]c21", "NIK", "%", 76],
  ["O=C(NCCNc1ccnc(Nc2ccc(F)cc2)n1)Nc1ccccc1F [GSK1379880]", "NIK", "%", 9],
  ["Cc1ccc(C(=O)NCC(N)=O)cc1-n1c(C)cc(OCc2ccc(F)cc2F)c(Br)c1=O", "NIK", "%", 0],
  ["CN1c2ccc(CNc3ccc(F)cc3)cc2-c2c(cnn2C)S1(=O)=O", "NIK", "%", 0],
  ["CCc1nc(-c2cccc(C)c2)c(-c2ccnc(NCc3ccccc3)c2)s1", "NIK", "%", 0],
  ["Cc1nnc(-c2ccc3ncc(-c4ccc(S(C)=O)cc4)n3c2)o1 (stereo not drawn)", "NIK", "%", 0]
]}
